System: PfAP2-G AP2 domain (GST-tagged)
Assay details: gcPBM binding intensity (ln(normalized median fluorescence intensity)); higher = stronger DNA binding
Whole data set: some 25,000 sequences, median “ln(normalized median fluorescence intensity)” near 10, cut for the highest 2% near 12. The sample as a whole holds a higher share of the highest values than the screen did.
Assignment: determine reported gcPBM binding intensity (ln) for the given sequences.
Give the figure by itself; no unit, no explanation.

Measured gcPBM binding intensity (ln) (PfAP2-G AP2 domain (GST-tagged)), entry TAAAAAAAATACAAAAGTACACAAAATTATACGTTA [XGTACX_site4656] : 11.5

Simply: ACAAAAAAAAAAAAAATACACACACATAAAAAAAAA [TGCATGCA_negctrl_site333] , PfAP2-G AP2 domain (GST-tagged), gcPBM binding intensity (ln) = 10.1

Short answer on PfAP2-G AP2 domain (GST-tagged) for GTATATATTTAAACACGTACACAAAACCCAAAAAAT [XGTACX_site8110] , gcPBM binding intensity (ln): 11.8

Tested on PfAP2-G AP2 domain (GST-tagged): ATATGTATTAAGTGTACACATATAATGGGTTTGTTA [CACACA_site5682] . Observed gcPBM binding intensity (ln): 11.7

PfAP2-G AP2 domain (GST-tagged) gcPBM binding intensity (ln) of TTTACACGTACGTGTACACACAAAAATATGTTTTTA [CACACA_site995] is 11.6
